test system: HCT116 cells (KRAS G13D); experiment: Cell-based pERK HTRF assay in HCT116 cells (Biological Example 5); details: Homo sapiens, HCT-116
pIC50: −log10 of the molar value.
readoutType: pIC50

compound="C[C@@H]1[C@H](N(C)c2nc(OC[C@@]34CCCN3C[C@H](F)C4)nc3c(F)c(-c4ccc(F)c5sc(N)c(C#N)c45)c(C(F)(F)F)cc23)CC(=O)N1C [Compound 440]" result="≥ 7.00"

May I ask what pIC50 has been recorded for N#Cc1cnn2c1CN(c1nc(OC[C@@]34CCCN3C[C@H](F)C4)nc3c(F)c(-c4ccc(F)c5sc(N)c(C#N)c45)c(C(F)(F)F)cc13)CC2 [Compound 392] ?
≥ 7.00
